tested on: NCI/ADR-RES ovarian; assay: NCI-60 one-dose screen, 48 h; settings: 10 µM unless noted
Compounds without any hit were thinned out: in the full panel of roughly 83,000, 20% have a hit. Active and inactive are the calls of the source. How the source made its calls: active means growth percent below 10; inactive means the rest.
Output constraint: value belongs to true (active), false (inactive)

Study these solved cases before continuing.
molecule | cat
COc1ccc(-c2cnc3ccnn3c2-c2cc(OC)c(OC)c(OC)c2)cc1 | false
N#CC1=C(N)Oc2nc[nH]c(=O)c2C1c1cccs1 (configuration not stated) | false
Cc1ccc(N=CNN=C(N)N)cc1 | false
COc1cccc2nc(Nc3cccc(NC(=O)c4ccc(N5CCN(C)CC5)c(C(F)(F)F)c4)c3)ccc12 | false
O=C(Nc1ccc2[nH]c3ccccc3c2c1)c1ccccc1Cl | false

Q: How was CC(=O)N(C)c1ccc(Nc2cc(C)[nH]c3ccc4ncnc4c23)cc1 classified in this test?
Result: false

Q: How was CCCCOc1ncnc2nc[nH]c12 classified in this test?
Result: false

Q: How was [Ag].[Ag].[NH-]S(=O)(=O)c1ccc(N=Nc2cc(N=Nc3ccc(S([NH-])(=O)=O)cc3)c3c(NC(=O)C(Cl)Cl)cccc3c2OC(=O)C(Cl)Cl)cc1.[c-]1nccs1.[c-]1nccs1 classified in this test?
Result: false

Q: How was COCCCNCC(=O)Nc1c(C)cccc1C classified in this test?
Result: false

Q: How was CC(C)NCCCCCNc1cc(O)cc2cccnc12 classified in this test?
Result: false

* * *

test system: LOX IMVI melanoma; test: NCI-60 one-dose screen, 48 h (100 = growth as untreated, 0 = no growth, -100 = all killed); conditions: 10 µM unless noted
Compounds without any hit were thinned out: in the full panel of roughly 83,000, 20% have a hit.
reported metric: growth (%)
Numbers only, in %.

Look over these answered cases.
compound | growth [%]
CCC(=O)NC(O)C(Cl)(Cl)C(C)Cl (stereo unspecified) | 96.4
c1ccc(C2=Nc3ccccc3SC2)cc1 | 90.4
FC(F)(F)c1ccc(/C=N/Nc2nnc3n2N=C(c2ccc(Cl)cc2)CS3)cc1 | 82.8

Dear colleague, could you send me growth for each of the items below? Thanks.
1. O=C(Nc1ccccc1)C(CCCCN1C(=O)c2ccccc2C1=O)N1C(=O)c2ccccc2C1=O (stereo unspecified)
2. O=C(Nc1ccc(OS(=O)(=O)c2ccc(F)cc2)cc1)C12CC3CC(CC(C3)C1)C2
3. CCN(CC)Cc1cc(Nc2nc(NC3CCC(N(C)C)CC3)c3ccccc3n2)ccc1OC (stereo unspecified)

Result:
1. 101
2. 61.6
3. 33.7

* * *

system: TK-10 renal; assay: NCI-60 one-dose screen, 48 h; conditions: 10 µM unless noted
About 83,000 compounds went through this panel and 20% of them were active in at least one assay; those are over-represented in the sample as a whole. Active and inactive are the calls of the source. The calls were made as follows: active = growth percent below 10; inactive = the rest.
Output constraint: value belongs to active, inactive

Study these solved cases before continuing.
molecule | cat
CCC(=O)NC(O)C(Cl)(Cl)C(C)Cl (configuration not stated) | inactive
CCOC(=O)c1ccc(NC(=O)NC2=NCCS2)cc1 | inactive
CCCCN(CCCC)CCC(=O)c1ccc(OC)c2ccccc12 | inactive
O=c1c2sc3ccccc3c2nnn1-c1ccc(F)c(Cl)c1 | inactive

Q: How was Cc1nc([C@H]2CC[C@H]3[C@@H]4CCC5=CC(=O)CC[C@]5(C)[C@H]4CC[C@]23C)cs1 classified in this test?
Result: inactive

Q: How was CC(OC(=O)Nc1cccc(Cl)c1)C(=O)O (configuration not stated) classified in this test?
Result: inactive

Q: How was COc1ccc(/C=c2\c(=O)n(-c3ccccc3)c3nn4c(n23)=NNC42CCCCC2)cc1 classified in this test?
Result: inactive

Q: How was Cc1[nH]nc2ccc3nc(-c4ccc5[nH]ncc5c4)c4c(c3c12)CCCC4 classified in this test?
Result: inactive

Q: How was Clc1ccc(Nc2ncnc3c2sc2ncccc23)cc1 classified in this test?
Result: inactive

* * *

system: HT29 colon; test: NCI-60 one-dose screen, 48 h (100 = growth as untreated, 0 = no growth, -100 = all killed); conditions: 10 µM unless noted
The panel holds about 83,000 compounds, 20% with a hit somewhere; the sample as a whole holds those more often.
reported metric: growth (%)
One number for each entry, in %.

Dear colleague, could you send me growth for each of the items below? Thanks.
1. N#Cc1nc(-c2cccc(Br)c2)cc(-c2ccc(Nc3nc(N4CCCCC4)nc(N4CCCCC4)n3)cc2)c1N
2. Brc1cccc(-n2ncc3c(Nc4ccc(-c5nnc(-c6ccccc6)o5)cc4)ncnc32)c1
3. CCOC(=O)c1sc2nc(-c3cc4ccccc4o3)cc(-c3ccc(Cl)cc3)c2c1N
4. Oc1ccc(-c2cnc(-c3ccccc3)[nH]2)c(O)c1
5. O=C1C=CC(=O)N1CO

Result:
-24.6
106
105
120
105

* * *

system: TK-10 renal; assay: NCI-60 one-dose screen, 48 h (100 = growth as untreated, 0 = no growth, -100 = all killed); settings: 10 µM unless noted
About 83,000 compounds went through this panel and 20% of them were active in at least one assay; those are over-represented in the sample as a whole.
Kindly state growth for each of the entries shown.
One number for each entry, in %.

molecule | system tested | growth [%]
CCOP(=O)(O)OP(=O)(O)OCC | TK-10 renal | 103
CCc1ccc2c(c1)N(CCO)C1=C(C(=O)OC1)C2c1cccc(Cl)c1 (stereo unspecified) | TK-10 renal | 49.9
CC[C@H](Nc1nc(C)nc(N)c1C#N)c1nc2cccc(NCc3ccc(C(=O)NO)cc3)c2c(=O)n1-c1ccccc1 | TK-10 renal | 2
CSC(=S)N/N=C(\C)c1ccccn1 | TK-10 renal | 41.7
COc1ccc(C(=O)C(C#N)c2cc(OC)c(OC)c(OC)c2)cc1 (stereo unspecified) | TK-10 renal | 94

The measured growth associated with CN(C)c1ccc(N2Cc3ccccc3OC3=C2C(=O)c2c(O)ccc(O)c2C3=O)cn1 reads -93.9

* * *

test system: SW-620 colon; experiment: NCI-60 one-dose screen, 48 h (100 = growth as untreated, 0 = no growth, -100 = all killed); settings: 10 µM unless noted
The panel holds about 83,000 compounds, 20% with a hit somewhere; the sample as a whole holds those more often.
Kindly state growth for each of the entries shown.
One number for each entry, in %.

Look over these answered cases.
molecule | system tested | reported metric | meas value
C/C(=N\OC(=O)Nc1cccc(Cl)c1)c1ccccc1 | SW-620 colon | growth | 95.3
COc1cc(/C=C/C(=O)c2c(C)nc3ccccc3c2C)ccc1OCCCOc1cc2c(cc1OC)C(=O)N1CCC[C@H]1C=N2 | SW-620 colon | growth | -67.6
COc1ccc(C(=O)c2cc(C)c(OC)c(C)c2)cc1OC(=O)CCl | SW-620 colon | growth | 26.5
O=C(O)/C=C(\c1nc2ccc([N+](=O)[O-])cc2[nH]1)c1cc(Cl)ccc1O | SW-620 colon | growth | 28.6
COc1ccc(/C=C2\CCCC3=C2N=C2SC(C)=NN2C3c2ccc(OC)c(OC)c2)cc1OC (stereo unspecified) | SW-620 colon | growth | 27.3
CC(OC(=O)Nc1cccc(Cl)c1)C(=O)O (stereo unspecified) | SW-620 colon | growth | 99.5
Cn1c(=O)c2[nH]c(Cc3ccc4c(c3)OCO4)nc2n(C)c1=O | SW-620 colon | growth | 99.8
CCCCc1n(Cc2ccc3ccccc3n2)cc[n+]1Cc1ccc2ccccc2n1 | SW-620 colon | growth | 22.1
CCOC(=O)c1c(NC(=O)c2ccccc2)sc2c(O)c(CN(CC)CC)ccc12 | SW-620 colon | growth | 19.6
COc1ccc2[nH]c(C(=O)OCc3ccc4c(Br)cc(Br)c(O)c4n3)cc2c1 | SW-620 colon | growth | -72.8

Dear colleague, could you send me growth for each of the items below? Thanks.
1. COc1cccc(CC(C)=C(c2ccc(OCCCN(C)C)cc2)c2ccc(OCCCN(C)C)cc2)c1
2. Nc1nc(N)c2cc(Sc3ccc(Cl)cc3)ccc2n1

Result:
1: -80.1; 2: 25.8

Dear colleague, could you send me growth for each of the items below? Thanks.
1. Fc1ccc(-c2ccnc3nc(-c4ccncc4)nn23)cc1
2. COc1ccc(/C(=C\c2ccc3c(c2)OCO3)C(=O)Nc2nc3ccc(F)cc3s2)cc1OC
3. COc1ccc2c(c1)N(CCO)C1=C(C(=O)OC1)C2c1cccc(Br)c1 (stereo unspecified)

Result:
1: 30.3; 2: 104; 3: 22.5

Dear colleague, could you send me growth for each of the items below? Thanks.
1. Brc1ccccc1Cn1c(-c2cncs2)nc2ccccc21
2. COc1ccc([C@@H]2[C@@H](Oc3ccccc3)C(=O)N2c2cc(OC)c(OC)c(OC)c2)cc1F
3. C#CCNC(=S)N/N=C(\C)c1ccccn1
4. COc1cccc(Cn2c(-c3nonc3NC(C)=O)nc3ccccc32)c1
5. COc1ccc(/C=C(/C(=O)N2CCN(c3ccccc3)CC2)c2cc(OC)c(OC)c(OC)c2)cc1N
6. CNC(=O)c1ccccc1Sc1ccc2c(/C=C/c3ccccn3)n[nH]c2c1

Result:
[88.4, 26.2, 34.3, 28.7, 25.9, 17.8]
